Target: DNA topoisomerase 1 (Homo sapiens) (UniProt P11387)
Sequence (P11387 whole entry): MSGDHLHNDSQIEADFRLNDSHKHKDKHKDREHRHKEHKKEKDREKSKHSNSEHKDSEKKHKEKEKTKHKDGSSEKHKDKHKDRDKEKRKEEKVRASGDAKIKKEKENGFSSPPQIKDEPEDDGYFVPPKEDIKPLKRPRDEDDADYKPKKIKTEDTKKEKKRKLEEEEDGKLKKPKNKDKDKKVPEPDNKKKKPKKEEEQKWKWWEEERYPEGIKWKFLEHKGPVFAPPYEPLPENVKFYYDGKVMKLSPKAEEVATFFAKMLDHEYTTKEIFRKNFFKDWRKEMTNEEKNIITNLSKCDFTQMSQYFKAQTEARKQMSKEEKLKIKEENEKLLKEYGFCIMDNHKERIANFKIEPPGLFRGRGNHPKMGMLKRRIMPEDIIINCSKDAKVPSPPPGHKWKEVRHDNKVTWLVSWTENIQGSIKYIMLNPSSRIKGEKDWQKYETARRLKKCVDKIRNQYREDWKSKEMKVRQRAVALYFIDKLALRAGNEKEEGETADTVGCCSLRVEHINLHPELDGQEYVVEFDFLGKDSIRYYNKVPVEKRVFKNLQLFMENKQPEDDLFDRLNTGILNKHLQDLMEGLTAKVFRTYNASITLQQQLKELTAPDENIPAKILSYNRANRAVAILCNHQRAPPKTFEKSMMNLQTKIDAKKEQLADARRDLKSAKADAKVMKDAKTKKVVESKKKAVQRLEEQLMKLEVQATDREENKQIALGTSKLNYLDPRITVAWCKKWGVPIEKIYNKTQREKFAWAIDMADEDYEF
Assay: Inhibition of human recombinant DNA topoisomerase 1 assessed as relaxation of supercoiled pBR322 DNA at 100 uM after 30 mins using ethidium bromide staining by agarose gel electrophoresis
So I've got a bunch of compounds here, and I need their inhibition values.
Answers are plain numbers, in %.

Example entries begin here.
# smi, inhibition (%)
measured = [
    ("Oc1ccc(-c2cc(-c3ccco3)nc3c2COc2ccccc2-3)cc1", 0.5),
    ("Oc1cccc(-c2cc(-c3ccccc3O)nc3c2COc2ccccc2-3)c1", 2.4),
]

Record inhibition per entry; entries follow.
1. Oc1ccc(-c2cc(-c3ccccc3)nc3c2COc2ccccc2-3)cc1
2. Oc1cccc(-c2cc(-c3ccco3)nc3c2COc2ccccc2-3)c1
3. Oc1cccc(-c2cc(-c3ccsc3)nc3c2COc2ccccc2-3)c1
4. Oc1cccc(-c2cc(-c3ccccc3O)c3c(n2)-c2ccccc2OC3)c1
5. Oc1ccc(-c2cc(-c3cccc(O)c3)nc3c2COc2ccccc2-3)cc1

// result
1: 2.1; 2: 1.4; 3: 68.6; 4: 3.3; 5: 1.8

List inhibition for every entry below, keeping the order given.
1. Oc1ccccc1-c1cc(-c2ccsc2)nc2c1COc1ccccc1-2
2. Oc1cccc(-c2cc(-c3cccc(O)c3)c3c(n2)-c2ccccc2OC3)c1
3. Oc1ccc(-c2cc(-c3ccc(O)cc3)c3c(n2)-c2ccccc2OC3)cc1
4. Oc1ccc(-c2cc(-c3cccc(O)c3)c3c(n2)-c2ccccc2OC3)cc1

// result
1: 3.3; 2: 4.3; 3: 2.8; 4: 5.3
